Catalogue of molecules with associated melting point

Molecule: COc1cccc(C2c3c(C)c(NC(=O)CC(C)(C)C)c(C)c(C)c3OC2(C)C)c1 (stereo not given)
melting point: 166 to 167 °C
//
Molecule: O=c1[nH]c2ccccc2c2cc(C(O)c3ccccc3)nn12 (stereo not given)
melting point: 231 to 233 °C
//
Molecule: CC(C)Cn1c(CCCCNC(=O)N2CCOCC2)nc2c(N)nc3ccccc3c21
melting point: 97 to 100 °C
//
Molecule: Cc1ccc(C=Cc2csc3ccccc23)s1
melting point: 62 to 64 °C
//
Molecule: COc1cc(C(=O)C#CC(=O)O)cc(OC)c1OC
melting point: 130 to 132 °C
//
Molecule: c1ccc2c(c1)Cc1c(-c3ccc(OCCN4CCOCC4)cc3)n[nH]c1-2
melting point: 175 to 176 °C
//
Molecule: N#Cc1c(O)nc2onc(-c3ccccc3)c2c1N
melting point: 251 °C
//
Molecule: Cc1cccc(C(=O)Nc2nc(-c3ccccc3)c(-c3ccc(=O)n(C(C)C)n3)s2)c1
melting point: 198 to 199 °C
//
Molecule: CC(C)(C)OC(=O)N1CCCC(CO)(c2ccccc2)C1 (stereo not given)
melting point: 101 to 104 °C
//
Molecule: CCCn1c(=O)c2[nH]c(/C=C/c3cc(C)c(OC)cc3C)nc2n(CCC)c1=O
melting point: 268 to 269 °C
//
Molecule: COCC1CN(C(=O)c2cc(OC)c(OC)c(OC)c2)CCN1C(=O)C1=Cc2cc(OC)c(OC)cc2CCC1 (stereo not given)
melting point: 137 °C
//
Molecule: N#CC1CN1C(=O)Oc1ccc([N+](=O)[O-])cc1 (stereo not given)
melting point: 100 to 104 °C
//
Molecule: CCC(=O)N1CCC(=NO)c2cc(F)ccc21
melting point: 126 to 128 °C
//
Molecule: CS(=O)(=O)c1ccc(-c2nc(-c3ccc(F)cc3)c(-c3ccncc3)[nH]2)cc1
melting point: 148 to 149 °C
//
Molecule: CC(C)(C)c1ccccc1C(O)(c1ccccc1)c1ncc[nH]1 (stereo not given)
melting point: 185 to 186 °C
//
Molecule: CC(=O)NCc1ccc2ccn(C3CCN(CCc4ccccc4F)CC3)c2c1
melting point: 101 to 102 °C
//
Molecule: CCN1CCN(c2c(F)cc3c(=O)c(C(=O)O)cn(C4CC4)c3c2C#N)CC1
melting point: > 300 °C
//
Molecule: O=C(O)c1ccc2nc3c(c(=O)n2c1)CCCC3=Cc1ccccc1
melting point: 261 to 263 °C
//
Molecule: C=CCOc1ccc(C(=O)Oc2ccc(C(=O)O)cc2)cc1C12CC3CC(CC(C3)C1)C2
melting point: 260 to 261 °C
//
Molecule: O=c1[nH]ncc2[nH]c(-c3ccc(OC(F)F)c(OC4CC4)c3)c(-c3ccccc3)c12
melting point: 138 to 143 °C
